Provenance of the data: patent US20200207859A1

- system.tested: CD74 (human), P04233
- Sequence (P04233 whole entry): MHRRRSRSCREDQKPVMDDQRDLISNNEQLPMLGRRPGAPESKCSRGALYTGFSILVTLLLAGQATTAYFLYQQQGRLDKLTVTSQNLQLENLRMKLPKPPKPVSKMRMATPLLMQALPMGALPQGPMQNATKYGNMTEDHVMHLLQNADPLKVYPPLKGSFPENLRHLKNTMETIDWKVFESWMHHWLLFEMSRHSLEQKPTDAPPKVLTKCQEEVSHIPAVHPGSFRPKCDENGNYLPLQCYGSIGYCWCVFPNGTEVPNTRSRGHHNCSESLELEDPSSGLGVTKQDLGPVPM
- assay.method.text: cell-based or functional assay
quantity: cell killing IC50, JVM-13 (CLL) cells (nM)
# output: bare number, implied unit nM

Conjugate E (anti-CD74 IgG-PEG4-MMAF conjugate) (antibody, V domains shown, here or on the partner: modified amino acid residue 30 (pAMF) according to Example 2, position not stated for this conjugate, linked to PEG4-MMAF) VH: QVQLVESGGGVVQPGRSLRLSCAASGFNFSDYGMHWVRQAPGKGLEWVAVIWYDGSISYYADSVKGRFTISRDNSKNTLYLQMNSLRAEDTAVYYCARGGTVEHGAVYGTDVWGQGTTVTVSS VL: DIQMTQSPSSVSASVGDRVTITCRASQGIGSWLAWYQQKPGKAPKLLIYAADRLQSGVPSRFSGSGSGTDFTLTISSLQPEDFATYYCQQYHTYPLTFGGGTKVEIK ... 7.8

Query :: Quick one: cell killing IC50, JVM-13 (CLL) cells for Conjugate C (anti-CD74 IgG-val-cit-PAB-hemiasterlin conjugate) (antibody, V domains shown, here or on the partner: modified amino acid residue 30 (pAMF) according to Example 2, position not stated for this conjugate, linked to val-cit-PAB-hemiasterlin) VH: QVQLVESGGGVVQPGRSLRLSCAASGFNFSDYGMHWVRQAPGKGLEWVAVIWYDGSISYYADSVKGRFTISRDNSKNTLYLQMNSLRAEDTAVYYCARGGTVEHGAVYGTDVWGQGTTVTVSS VL: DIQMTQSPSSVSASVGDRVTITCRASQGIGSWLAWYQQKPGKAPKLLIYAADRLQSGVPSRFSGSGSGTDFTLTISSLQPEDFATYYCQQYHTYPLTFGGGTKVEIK ?
Result :: 0.9

Query :: And the next one, Conjugate B (anti-CD74 IgG-PEG4-maytansine conjugate) (antibody, V domains shown, here or on the partner: modified amino acid residue 30 (pAMF) according to Example 2, position not stated for this conjugate, linked to a PEG4-maytansine linker-payload) VH: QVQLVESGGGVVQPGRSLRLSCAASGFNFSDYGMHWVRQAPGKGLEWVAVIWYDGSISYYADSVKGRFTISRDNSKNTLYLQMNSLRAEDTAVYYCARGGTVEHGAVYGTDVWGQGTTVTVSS VL: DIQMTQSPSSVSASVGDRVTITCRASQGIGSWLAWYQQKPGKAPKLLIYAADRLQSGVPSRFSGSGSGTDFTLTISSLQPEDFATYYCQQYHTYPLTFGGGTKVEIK ?
Result :: 2

Query :: And the next one, Conjugate A (anti-CD74 IgG-DBCO-PEG4-maytansine conjugate) (antibody, V domains shown, here or on the partner: para-azidomethyl-L-phenylalanine (pAMF, residue 30) at heavy chain EU position 404 (constant region, outside SEQ ID NO 236), linked to DBCO-PEG4-maytansine) VH: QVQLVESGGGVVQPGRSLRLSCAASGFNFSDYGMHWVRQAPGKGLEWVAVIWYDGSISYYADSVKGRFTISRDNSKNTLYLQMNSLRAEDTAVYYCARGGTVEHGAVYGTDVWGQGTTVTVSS VL: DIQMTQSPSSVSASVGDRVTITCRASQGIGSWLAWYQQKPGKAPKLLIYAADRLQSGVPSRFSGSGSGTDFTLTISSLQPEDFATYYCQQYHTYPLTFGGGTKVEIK ?
Result :: 1.5

Query :: And the next one, Conjugate F (anti-CD74 IgG-PEG4-MMAE conjugate) (antibody, V domains shown, here or on the partner: modified amino acid residue 30 (pAMF) according to Example 2, position not stated for this conjugate, linked to PEG4-MMAE) VH: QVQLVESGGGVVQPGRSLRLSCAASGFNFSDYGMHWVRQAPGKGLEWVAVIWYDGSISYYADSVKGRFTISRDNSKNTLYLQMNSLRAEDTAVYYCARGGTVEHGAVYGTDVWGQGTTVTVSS VL: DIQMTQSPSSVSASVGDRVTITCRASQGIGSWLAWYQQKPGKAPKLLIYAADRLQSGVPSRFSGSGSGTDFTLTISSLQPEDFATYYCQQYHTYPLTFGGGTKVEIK ?
Result :: 5
